Reference for the values: paper PMC9352680

Please respond with reported Kd for every item in the list.
TEST_SYSTEM: T1, PUF4 RNA-binding domain (Saccharomyces cerevisiae, UniProt P25339 537-888)
T1 sequence: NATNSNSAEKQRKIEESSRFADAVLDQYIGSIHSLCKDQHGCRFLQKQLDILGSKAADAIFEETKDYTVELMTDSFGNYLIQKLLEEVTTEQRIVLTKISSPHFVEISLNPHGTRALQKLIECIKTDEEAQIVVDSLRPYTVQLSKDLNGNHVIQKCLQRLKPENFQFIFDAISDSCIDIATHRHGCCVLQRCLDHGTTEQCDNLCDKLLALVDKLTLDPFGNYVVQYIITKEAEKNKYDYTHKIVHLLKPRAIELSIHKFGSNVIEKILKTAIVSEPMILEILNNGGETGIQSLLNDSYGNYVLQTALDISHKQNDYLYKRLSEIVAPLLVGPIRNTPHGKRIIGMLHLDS
ASSAY_METHOD_TEXT: Mg; RNA-MaP; 20 mM Na-HEPES pH 7.4, 30 mM KOAc, 0.75 mM MgCl2, 0.1% Tween-20, 5% glycerol, 0.1 mg/mL BSA, 2 mM DTT; 25 C; 0.0125-409.6 nM protein
CONDITION_SET: tags: N-His6-TEV cleaved; C-SNAP kept, Cy3B-labelled; label: tethered on chip by stalled RNA polymerase
Give bare numbers, in nM.

Below, each entry is followed by its recorded Kd result.
BINDER: UCUCUUUGUACCGCCUCUCUU (ssRNA) [Ic_S1_P4E.1_K4.1_C4.1_H4.1_A4.1_[T5C]_[A6C]_[T7G]_F4.1_[T8C]_[A9C]_T4.1]
Kd, nM: 1630
--
BINDER: Ic_S2_P4E.1_K4.1_C4.1_H4.1_A4.1_[A6C]_F4.1_[A9C]_T4.1 (ssRNA) RNA: UUUGAUUAAUAUGAUAUCGUUCUUUCUUGUAUCUUCUUCUUUCUCGAUAUCAUAUUAAUCUUU
Kd, nM: 14.5

// for each binder below, give its Kd
1. Id_ii_S2_P4E.3_K4.2_C4.2_H4.2_A4.1_F4.1_T4.2_[G10T]_[T11C] (ssRNA) RNA: UUUGAUUAAUAUGAUAUCGUUCUUUCUCUUAUAUAUUAUCUUCUUUCUCGAUAUCAUAUUAAUCUUU
2. UCUCUUUGUACAUGUUUCUCUU (ssRNA) [Ic_S1_P5E.1_K5.1_C5.1_H5.1_A5.1_[T5C]_[T6A]_[A7T]_F5.1_[T8G]_[A10T]_T5.1]
3. Ib_S2_P5E.1_K5.1_C5.1_H5.1_[G2C]_A5.1_[T5A]_F5.1_T5.1 (ssRNA) RNA: UUUGAUUAAUAUGAUAUCGUUCUUUCUUCUAAUAUUAUUCUUUCUCGAUAUCAUAUUAAUCUUU

Output line:
[4.61, 27.2, 870]
